ASSAY EXPLANATION: NCI Yeast Anticancer Drug Screen. Data for the bub3 strain (AID 167)
ASSAY CONDITIONS: S. cerevisiae bub3 mutant strain, at 50.0 µM, hits give high values
About 79,000 compounds went through this panel and 15% of them were active in at least one assay; those are over-represented in the sample as a whole.
Note to self: values exactly at 90% are T. So growth inhibition at or above 90% is T, below is F.

[[record]]
molecule = "CCCCc1c(O)c(N=NC(=O)C[n+]2ccccc2)c2ccccc2c1O"
class_assignment = "F"

[[record]]
molecule = "CC(=O)O[C@H]1[C@@H]2CC(C)(C)CC2=C(C=O)C2(C=O)CC12C (stereo partly specified)"
class_assignment = "F"

[[record]]
molecule = "CSCSCC(CO)NC(=O)/C=C/c1c(C)[nH]c(=O)[nH]c1=O (stereo unspecified)"
class_assignment = "T"


Asked: Assess whether reported growth inhibition for O=C(O)C(Cc1cc(I)c(O)c(I)c1)c1ccccc1 (stereo unspecified) sits at 90% or higher.
Given back: F

Asked: Hello, I need to know if CCC1=CCC2C(=O)c3cc4ccccc4cc3C(=O)C2C1 (stereo unspecified) has measured growth inhibition not below 90%. Thanks!
Given back: T

---

ASSAY EXPLANATION: NCI Yeast Anticancer Drug Screen. Data for the mec2-1 strain (AID 157)
ASSAY CONDITIONS: S. cerevisiae mec2-1 strain, at 5.0 µM (retest, dose inferred, filed as 0.5), hits give high values
Compounds without any hit were thinned out: in the full panel of roughly 79,000, 15% have a hit.
PROPERTY LABEL: growth inhibition (%)
Your answer should be a plain number; it is taken to be in %.

Example entries and their recorded answers appear below.
[[record]]
compound = "Brc1ccc(CCNCCN2CCCCC2)cc1"
reported_result = 25

[[record]]
compound = "CCOC(=O)C1=C(c2ccccc2)N(C)c2ccccc2S1"
reported_result = 4


Asked: # return recorded growth inhibition for input COC(=O)C1(Cc2ccc(C)cc2)Cc2c(C)cccc2C1=O (stereo not given)
Given back: -2

Asked: For the compound `FC(F)(F)c1ccc(Cl)c(NC(=S)SC2CCCCC2)c1` , give its measured growth inhibition value.
Given back: 0

Asked: Give growth inhibition for the following compound: `CCCCCCC(=O)Nc1ccc(OC(=O)CCCCCC)c(=O)cc1`
Given back: 36

Asked: Return growth inhibition for the following compound: `CC(C)c1ccc(C(C)C)c(O)c1O`
Given back: 24

Asked: Supply growth inhibition value. Item: CCCC(O)[C@@]1(CC)CC(C)C(O)(C2(C)C[C@H](C)[C@@H](C(CC)C(=O)C(C)[C@@H](O)[C@H](C)C3OC(O)(C(CC)C(=O)O)[C@@H](C)C(O)C3CC)O2)O1 (stereo not given in full)
Given back: -27

Asked: Recall and state the measured growth inhibition for `O=C(CC(=O)c1ccccc1NC1=Cc2ccccc2C(=O)C1=O)C(=O)NC1=C(Cl)C(=O)c2ccccc2C1=O` .
Given back: 21

Asked: Give the reported growth inhibition for this compound. `CN(C)C(=O)/N=c1\ss/c(=N\C(=S)N(C)C)n1-c1ccccc1`
Given back: -9

Asked: Supply reported growth inhibition belonging to this compound: `Brc1cc2c(c(Br)c1Br)C(Br)(Br)C(c1ccccc1)=N2`
Given back: 10

---

Entries annotated with measured growth inhibition
ASSAY EXPLANATION: NCI Yeast Anticancer Drug Screen. Data for the mlh1 rad18 strain (AID 175)
ASSAY CONDITIONS: S. cerevisiae mlh1 rad18 strain growth inhibition; at 50.0 µM (retest, dose inferred, filed as 5.0); hits give high values
This is part of a sample that, as a whole, favours compounds with a hit. Of some 79,000 tested, about 15% had one in any assay.
Give a bare numeral; the unit % is implied.

[[record]]
molecule = "Cc1ccc(C2=C(C#N)C(c3ccccc3)C(C#N)=C(N)O2)cc1 (stereo unspecified)"
reported_result = 98

[[record]]
molecule = "NC1C(=O)C2CCCCC2C(=O)C1C(=O)c1ccccc1 (stereo unspecified)"
reported_result = 24

[[record]]
molecule = "O=C(O)CC/C(=N\\Nc1ccccc1)C(=O)O"
reported_result = 93

[[record]]
molecule = "O=C(CC(c1ccccc1)c1ccccc1)NCCCCN1CCCCCCC1"
reported_result = 93

[[record]]
molecule = "CC(c1ccc2cccc(F)c2c1)c1ccccc1C(=O)O (stereo unspecified)"
reported_result = 99

[[record]]
molecule = "Cc1ccc2c(c1C)-c1c(ccc(C)c1C)C(=O)C2=O"
reported_result = 99

[[record]]
molecule = "C/C=C1/C=CC2c3[nH]c4ccccc4c3CCN2C1 (stereo unspecified)"
reported_result = -107

[[record]]
molecule = "CCCCCC(Oc1ccc(Cl)cc1)C(=O)O (stereo unspecified)"
reported_result = 89


Please find the next molecule below.
Asked: Using the record for COC(=O)c1c(C)cccc1C1CN=NC12Cc1ccc(C)c(C)c1C2=O (stereo unspecified) , state its measured growth inhibition.
Given back: 57

These data points were gathered from PubChem BioAssay (NCI).
